// data source = patent US20120039802A1

biological target: T1, human cMet expressed on 3T3 cells (human, UniProt P08581 25-1390); assay: whole cell phage ELISA, 3T3 human cMet vs 3T3
T1 construct: whole, on cells; cells fixed with glutaraldehyde; also called cell surface-expressed human cMet; 3T3 cells that over-express human cMet
T1 sequence (P08581 25-1390): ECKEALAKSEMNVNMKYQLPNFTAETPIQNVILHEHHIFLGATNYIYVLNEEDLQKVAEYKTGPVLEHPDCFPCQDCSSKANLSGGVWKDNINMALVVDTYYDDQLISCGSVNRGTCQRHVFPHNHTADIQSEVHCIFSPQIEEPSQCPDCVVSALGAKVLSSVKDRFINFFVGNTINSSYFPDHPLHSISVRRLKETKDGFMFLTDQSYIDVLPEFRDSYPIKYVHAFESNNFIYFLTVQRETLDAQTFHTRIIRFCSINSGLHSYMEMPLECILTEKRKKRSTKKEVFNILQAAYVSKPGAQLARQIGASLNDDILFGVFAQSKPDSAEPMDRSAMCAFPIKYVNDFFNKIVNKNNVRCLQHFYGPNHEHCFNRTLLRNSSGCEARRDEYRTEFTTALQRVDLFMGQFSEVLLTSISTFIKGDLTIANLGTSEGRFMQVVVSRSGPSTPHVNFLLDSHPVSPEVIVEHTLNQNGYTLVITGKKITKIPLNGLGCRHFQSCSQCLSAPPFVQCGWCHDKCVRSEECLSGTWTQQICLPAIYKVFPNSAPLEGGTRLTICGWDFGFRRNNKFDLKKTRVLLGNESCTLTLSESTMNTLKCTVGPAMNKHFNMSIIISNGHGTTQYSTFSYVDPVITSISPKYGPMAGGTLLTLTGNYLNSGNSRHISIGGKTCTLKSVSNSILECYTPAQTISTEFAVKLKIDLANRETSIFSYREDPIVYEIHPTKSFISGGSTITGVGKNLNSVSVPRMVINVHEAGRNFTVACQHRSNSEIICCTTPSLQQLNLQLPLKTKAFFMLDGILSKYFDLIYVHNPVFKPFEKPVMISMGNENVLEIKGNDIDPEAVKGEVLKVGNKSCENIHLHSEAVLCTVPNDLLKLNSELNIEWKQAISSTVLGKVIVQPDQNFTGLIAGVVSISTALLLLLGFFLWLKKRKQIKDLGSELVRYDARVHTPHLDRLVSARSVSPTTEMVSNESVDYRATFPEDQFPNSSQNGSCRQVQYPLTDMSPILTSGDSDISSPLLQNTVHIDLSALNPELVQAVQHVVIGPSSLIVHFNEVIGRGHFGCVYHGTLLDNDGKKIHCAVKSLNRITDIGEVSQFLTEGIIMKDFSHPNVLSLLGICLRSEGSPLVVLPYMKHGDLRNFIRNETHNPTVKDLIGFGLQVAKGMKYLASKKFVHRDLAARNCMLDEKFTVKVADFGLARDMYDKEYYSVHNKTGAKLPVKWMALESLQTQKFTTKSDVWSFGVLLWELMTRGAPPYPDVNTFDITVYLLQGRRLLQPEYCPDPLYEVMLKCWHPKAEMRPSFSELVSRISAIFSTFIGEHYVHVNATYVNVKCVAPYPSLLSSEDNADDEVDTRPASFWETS
Ends that are not written are not given here.
WC ELISA (fold over background) for assorted binders

[
  {
    "binder": "AQGFELWVDHTRNFFIAISP [127-A07 peptide-displaying phage (SEQ ID NO: 469)]",
    "readingUnit": "fold",
    "WC ELISA (fold over background)": 1.2
  },
  {
    "binder": "GSSARCDELINDFHSCLVMAP [445-E06 peptide-displaying phage (SEQ ID NO: 375)]",
    "readingUnit": "fold",
    "WC ELISA (fold over background)": 1.33
  },
  {
    "binder": "GDYYQCQFSKDMYSERCWPYDP [316-F08 peptide-displaying phage (SEQ ID NO: 397)]",
    "readingUnit": "fold",
    "WC ELISA (fold over background)": 1.3
  },
  {
    "binder": "AGYWSCAGPPMFMCTWQGT [552-G03 peptide-displaying phage (SEQ ID NO: 079)]",
    "readingUnit": "fold",
    "WC ELISA (fold over background)": 1.27
  },
  {
    "binder": "AGPYSCHSESHDCKLMGT [465-C01 peptide-displaying phage (SEQ ID NO: 032)]",
    "readingUnit": "fold",
    "WC ELISA (fold over background)": 1.27
  },
  {
    "binder": "AQVPDWLSAVVIEKLIEYGMMV [93-C08 peptide-displaying phage (SEQ ID NO: 464)]",
    "readingUnit": "fold",
    "WC ELISA (fold over background)": 1.37
  },
  {
    "binder": "AGLPKCSGPPWFSCYYGGT [545-A09 peptide-displaying phage (SEQ ID NO: 066)]",
    "readingUnit": "fold",
    "WC ELISA (fold over background)": 1.3
  },
  {
    "binder": "AGGFACGPPWDICWMFGT [573-F04 peptide-displaying phage (SEQ ID NO: 011)]",
    "readingUnit": "fold",
    "WC ELISA (fold over background)": 1.3
  },
  {
    "binder": "GSDMNCTVLAQDQIFCFREAP [451-C06 peptide-displaying phage (SEQ ID NO: 386)]",
    "readingUnit": "fold",
    "WC ELISA (fold over background)": 1.37
  },
  {
    "binder": "AQWPHDGLVHWGEVIMLRF [117-F04 peptide-displaying phage (SEQ ID NO: 479)]",
    "readingUnit": "fold",
    "WC ELISA (fold over background)": 1.37
  },
  {
    "binder": "AQQASRFTFTDGDSYWWFEDF [525-A07 peptide-displaying phage (SEQ ID NO: 449)]",
    "readingUnit": "fold",
    "WC ELISA (fold over background)": 1.17
  },
  {
    "binder": "AGQFYCSGPPTFQCIMIGT (not fully specified (bridges); cysteine pairing not given here) [550-F11 peptide-displaying phage (SEQ ID NO: 089)]",
    "readingUnit": "fold",
    "WC ELISA (fold over background)": 1.23
  },
  {
    "binder": "AQQWMFQIHQSMAWPYEWIDSY [524-D07 peptide-displaying phage (SEQ ID NO: 494)]",
    "readingUnit": "fold",
    "WC ELISA (fold over background)": 1.23
  },
  {
    "binder": "AGNLPCHWNMSVCDHQGT [465-D01 peptide-displaying phage (SEQ ID NO: 034)]",
    "readingUnit": "fold",
    "WC ELISA (fold over background)": 1.3
  },
  {
    "binder": "AQDLKPWTAGWEPPWLWTDRGP [104-C09 peptide-displaying phage (SEQ ID NO: 461)]",
    "readingUnit": "fold",
    "WC ELISA (fold over background)": 1.3
  },
  {
    "binder": "GSFFPCWRIDRFGYCHANAP [551-H10 peptide-displaying phage (SEQ ID NO: 370)]",
    "readingUnit": "fold",
    "WC ELISA (fold over background)": 1.87
  }
]
